Sourced from patent US11945822B2

Reported IC50 by item:
# Experimental System: CDK1/Cyclin B (Homo sapiens, UniProt P06493)
# Construct: purchased Invitrogen PR4768C
# Sequence (P06493 whole entry): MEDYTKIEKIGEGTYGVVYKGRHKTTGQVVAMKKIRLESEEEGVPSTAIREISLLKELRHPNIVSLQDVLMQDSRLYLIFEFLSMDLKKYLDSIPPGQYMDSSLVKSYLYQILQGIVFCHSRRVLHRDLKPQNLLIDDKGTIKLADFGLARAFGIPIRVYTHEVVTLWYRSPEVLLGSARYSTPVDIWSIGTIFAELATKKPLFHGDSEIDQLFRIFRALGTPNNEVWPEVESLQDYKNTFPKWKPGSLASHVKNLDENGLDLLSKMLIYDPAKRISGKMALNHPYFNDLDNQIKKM
# Sequence (P14635 whole entry partner): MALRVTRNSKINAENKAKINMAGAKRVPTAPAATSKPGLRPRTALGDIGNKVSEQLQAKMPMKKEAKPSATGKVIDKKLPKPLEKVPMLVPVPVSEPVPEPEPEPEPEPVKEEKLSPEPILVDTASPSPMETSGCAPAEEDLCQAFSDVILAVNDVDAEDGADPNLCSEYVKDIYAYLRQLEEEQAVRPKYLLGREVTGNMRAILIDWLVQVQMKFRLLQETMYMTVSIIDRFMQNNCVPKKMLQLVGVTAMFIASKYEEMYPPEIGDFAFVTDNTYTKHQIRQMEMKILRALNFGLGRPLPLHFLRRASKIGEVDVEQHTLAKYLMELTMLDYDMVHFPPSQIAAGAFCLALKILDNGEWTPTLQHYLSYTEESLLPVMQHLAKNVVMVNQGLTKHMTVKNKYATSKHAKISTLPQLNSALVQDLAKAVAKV
# Assay Method Text: Enzymatic assay for CDK1 (FRET based LANCE Ultra kinase assay)
# Assay type: biochemical
# Setup Conditions: read-out: CDK1 enzymatic activity (IC50 range)

These recorded examples may help you get a feel for the data.
{"Smiles Notation": "CC(C)c1cnn2c(N[C@@H](C)c3ccccc3-n3cc4ccccc4n3)nc(N3CCC(N)CC3)nc12", "Experimental System": "CDK1/Cyclin B (Homo sapiens, UniProt P06493)", "IC50": "> 1000 nM"}
{"Smiles Notation": "CC(C)c1cnn2c(NCc3cccc4ncn(C)c34)nc(N3CCC(N)CC3)nc12", "Experimental System": "CDK1/Cyclin B (Homo sapiens, UniProt P06493)", "IC50": "100 to 1000 nM"}

Note to self: IC50 recorded for CC(C)c1cnn2c(NCc3c(Cl)cccc3-n3ccc(C(=O)N4CCOCC4)n3)nc(N3CCC(N)CC3)nc12 was > 1000 nM
